Tested on: molds
method-notes: quantitative suspension assay, molds; also: test concentration or dose not given here
Assay type: cell-based
condition-parameters: 15 min exp. time; control 10^5/ml
endpoint-label: molds germ count

compound: OCc1ccccc1 [Benzyl alcohol]
target-or-test-system: molds
endpoint-label: molds germ count
observed-result: 10^4 /ml
--
compound: CC(O)C(=O)O (stereo not shown) [Lactic acid]
target-or-test-system: molds
endpoint-label: molds germ count
observed-result: 10^5 /ml
--
compound: OCC(O)CO [Glycerol]
target-or-test-system: molds
endpoint-label: molds germ count
observed-result: 10^5 /ml
--
compound: CC(O)CO (stereo not shown) [Propylene glycol]
target-or-test-system: molds
endpoint-label: molds germ count
observed-result: 10^5 /ml
